Recorded log10(Kb) values for a group of compounds are listed next.
# target-or-test-system: Carbonic anhydrase 2 (Bos taurus) (UniProt P00921)
# Sequence (P00921 2-260 limits assumed): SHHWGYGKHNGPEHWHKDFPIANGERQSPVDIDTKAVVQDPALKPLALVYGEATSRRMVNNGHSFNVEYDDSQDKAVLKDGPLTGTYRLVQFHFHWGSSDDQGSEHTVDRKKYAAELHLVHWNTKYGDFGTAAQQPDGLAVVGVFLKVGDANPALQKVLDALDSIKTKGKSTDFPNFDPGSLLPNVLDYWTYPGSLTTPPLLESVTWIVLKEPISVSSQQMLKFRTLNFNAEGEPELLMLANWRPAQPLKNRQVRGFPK
# experiment-summary: Evaluation of binding constant to bovine carbonic anhydrase II, measured by fluorescence in 20 mM phosphate buffer (pH=7.5)
measured-attribute: log10(Kb) (log10 of the value in M⁻¹)

- smiles-repr: "CC1(C)C(C(=O)NCc2ccc(S(N)(=O)=O)cc2)C1(C)C"
  measured-value: 7.04
- smiles-repr: "NS(=O)(=O)c1ccc(CNC(=O)CCC2CCCC2)cc1"
  measured-value: 7.08
- smiles-repr: "NS(=O)(=O)c1ccc(CNC(=O)CC2CCCC2)cc1"
  measured-value: 6.88
- smiles-repr: "CCCCNC(=O)c1ccc(S(N)(=O)=O)cc1"
  measured-value: 7.80
- smiles-repr: "CCCCCCC(=O)NCc1ccc(S(N)(=O)=O)cc1"
  measured-value: 6.76
- smiles-repr: "NS(=O)(=O)c1ccc(CNC(=O)C2CCCCC2)cc1"
  measured-value: 6.88
- smiles-repr: "CCCCCC(=O)NCc1ccc(S(N)(=O)=O)cc1"
  measured-value: 6.71
- smiles-repr: "CCCN(CCC)C(=O)c1ccc(S(N)(=O)=O)cc1"
  measured-value: 7.28
- smiles-repr: "CCCCCCNC(=O)c1ccc(S(N)(=O)=O)cc1"
  measured-value: 8.11
- smiles-repr: "CC(C)(C)CC(=O)NCc1ccc(S(N)(=O)=O)cc1"
  measured-value: 6.85
- smiles-repr: "CN(C)C(=O)c1ccc(S(N)(=O)=O)cc1"
  measured-value: 7.04
- smiles-repr: "NS(=O)(=O)c1ccc(CNC(=O)C2CCCCCC2)cc1"
  measured-value: 7.00

FYI, the data here is from ChEMBL document CHEMBL1128712.
